- Experiment Summary: AUC (0 to infinity) in CD-1 mouse at 5 mg/kg, iv administered as single dose
- Type: ADME, organism-based
- Set-up: dose 5 mg/kg, time infinity, route intravenous
- Stated Conditions: in vivo
Measurement Name: AUC(0-inf) (µM·h)
Could you give me the number in µM·h? Just the number is fine.

Q: Can you share its AUC(0-inf)? I mean this compound: Cn1c(-c2nc(C3CCC3)cn2CCCc2ccc(OC3CCNCC3)cc2)cc2sccc21
Result: 4.2

###

- Experiment Summary: Tmax in CD-1 mouse at 15 mg/kg, po administered as single dose
- Format: ADME, organism-based
- Stated Conditions: in vivo
Measurement Name: Tmax (min)
Could you give me the number in min? Just the number is fine.

Q: Can you share its Tmax? I mean this compound: Cn1c(-c2nc(C3CCC3)cn2CCCc2ccc(OC3CCNCC3)cc2)cc2sccc21
Result: 25

###

- Experiment Summary: AUC (0 to infinity) in CD-1 mouse at 15 mg/kg, po administered as single dose
- Type: ADME, organism-based
- Set-up: dose 15 mg/kg, time infinity, route oral
- Stated Conditions: in vivo
Measurement Name: AUC(0-inf)
Kindly format the answer as number then unit.

Q: Can you share its AUC(0-inf)? I mean this compound: Cn1c(-c2nc(C3CCC3)cn2CCCc2ccc(OC3CCNCC3)cc2)cc2sccc21
Result: 2.03 µM·h

###

- Experiment Summary: Oral bioavailability in CD-1 mouse at 15 mg/kg administered as single dose
- Assay type: ADME, organism-based
- Stated Conditions: in vivo
Measurement Name: bioavailability (%)
Could you give me the number in %? Just the number is fine.

Q: Can you share its bioavailability? I mean this compound: Cn1c(-c2nc(C3CCC3)cn2CCCc2ccc(OC3CCNCC3)cc2)cc2sccc21
Result: 17

###

- Experiment Summary: Cmax in CD-1 mouse at 5 mg/kg, iv administered as single dose
- Format: ADME, organism-based
- Design: dose 5 mg/kg, route intravenous
- Stated Conditions: in vivo
Measurement Name: Cmax (nM)
Could you give me the number in nM? Just the number is fine.

Q: Can you share its Cmax? I mean this compound: Cn1c(-c2nc(C3CCC3)cn2CCCc2ccc(OC3CCNCC3)cc2)cc2sccc21
Result: 2540

###

- Experiment Summary: Half life in CD-1 mouse at 5 mg/kg, iv administered as single dose
- Assay type: ADME, organism-based
- Stated Conditions: in vivo
Measurement Name: half-life (h)
Could you give me the number in h? Just the number is fine.

Q: Can you share its half-life? I mean this molecule: Cn1c(-c2nc(C3CCC3)cn2CCCc2ccc(OC3CCNCC3)cc2)cc2sccc21
Result: 6

###

- Experiment Summary: Cmax in CD-1 mouse at 15 mg/kg, po administered as single dose
- Format: ADME, organism-based
- Parameters: dose 15 mg/kg, route oral
- Stated Conditions: in vivo
Measurement Name: Cmax (nM)
Could you give me the number in nM? Just the number is fine.

Q: Can you share its Cmax? I mean this compound: Cn1c(-c2nc(C3CCC3)cn2CCCc2ccc(OC3CCNCC3)cc2)cc2sccc21
Result: 320
